Postemergence herbicidal rating ZEAMX overview
system: ZEAMX (Corn, Field); assay: Postemergence herbicidal evaluation; format: in vivo, Zea mays; conditions: Rate 0.0625 kg/ha
Give the figure only, with no unit attached.

Cn1c(C(F)(F)F)cc(=O)n(-c2cc(N=C3SCC(=O)N3CC(=O)NS(C)(=O)=O)c(Cl)cc2F)c1=O    7.5
C=CCN1C(=O)C(CC(=O)Nc2ccccc2)SC1=Nc1cc(-n2c(=O)cc(C(F)(F)F)n(C)c2=O)c(F)cc1Cl (stereo not shown)    5.0
CCOC(=O)CN1C(=O)C(Cc2ccccc2OC(C)C(=O)OC)SC1=Nc1cc(-n2c(=O)cc(C(F)(F)F)n(C)c2=O)c(F)cc1Cl (stereo not shown)    5.5

# ---- query compound ----
# input Determine its reported Postemergence herbicidal rating ZEAMX: CCOC(=O)CN1C(=O)C[S+]([O-])/C1=N/c1cc(-n2c(=O)cc(C(F)(F)F)n(C)c2=O)c(F)cc1Cl (stereo not shown)
# output 5.5

----------
tested on: AMBEL (Ragweed, Common); test: Postemergence herbicidal evaluation; format: in vivo, Ambrosia artemisifolia; details: postemergence, rate 0.0625 kg/ha
QUANTITY_KIND: herbicidal rating AMBEL
Give the figure only, with no unit attached.

Please review the following examples before continuing.
Cc1ccc(CN2C(=O)CSC2=Nc2cc(-n3c(=O)cc(C(F)(F)F)n(C)c3=O)c(F)cc2Cl)cc1C    7.0
Cn1c(C(F)(F)F)cc(=O)n(-c2cc(N=C3SCC(=O)N3Cc3ccco3)c(Cl)cc2F)c1=O    9.0

# input Determine its reported herbicidal rating AMBEL: Cn1c(C(F)(F)F)cc(=O)n(-c2cc(N=C3SCC(=O)N3Cc3ccccc3Cl)c(Cl)cc2F)c1=O
# output 9.0

# input Determine its reported herbicidal rating AMBEL: Cn1c(C(F)(F)F)cc(=O)n(-c2cc(N=C3SCC(=O)N3C3CC3)c(Cl)cc2F)c1=O
# output 9.0

----------
test system: ORYSAT (Rice, Tebonnet); test: Rice tolerance to post-transplant applications, flooded paddy conditions (Table IV); format: in vivo, Oryza sativa, (L.) Tebonnet; conditions: rate 0.2500 kg/ha; flooded paddy, post-transplant rice; 3-4 weeks after treatment
Herbicidal rating ORYSAT (rice tolerance) overview

O=C(O)CC1SC(=Nc2cc(N3C(=O)C4=C(CCCC4)C3=O)c(F)cc2Cl)N(CC(=O)O)C1=O (centres unmarked)    6.0
CCOP(=O)(CN1C(=O)CSC1=Nc1cc(-n2c(=O)cc(C(F)(F)F)n(C)c2=O)c(F)cc1Cl)OCC    3.0
CCOC(=O)COc1ccccc1CC1S/C(=N/c2cc(-n3c(=O)cc(C(F)(F)F)n(C)c3=O)c(F)cc2Cl)N(CC(=O)OCC)C1=O (centres unmarked)    0.0
CCOC(=O)CN1C(=O)C[S+]([O-])/C1=N/c1cc(-n2c(=O)cc(C(F)(F)F)n(C)c2=O)c(F)cc1Cl (centres unmarked)    3.0

# input Determine its reported Herbicidal rating ORYSAT (rice tolerance): O=C1CSC(=Nc2cc(N3C(=O)C4=C(CCCC4)C3=O)c(F)cc2Cl)N1c1ccccc1
# output 1.0

----------
system: ECHORC (Watergrass (Calif.)); test: Preemergence weed control under flooded paddy conditions; format: in vivo, Echinochloa oryzoides; conditions: 0.1250 kg/ha, rated 3-4 weeks after treatment
QUANTITY_KIND: Herbicidal rating ECHORC
Give the figure only, with no unit attached.

# input Determine its reported Herbicidal rating ECHORC: CCOC(=O)CN1C(=O)C[S+]([O-])/C1=N/c1cc(-n2c(=O)cc(C(F)(F)F)n(C)c2=O)c(F)cc1Cl (stereo not drawn) [Compound 45]
# output 7.0

# input Determine its reported Herbicidal rating ECHORC: CCOC(=O)CN1C(=O)CSC1=Nc1cc(N2C(=O)C3=C(CCCC3)C2=O)c(F)cc1Cl [Compound 47]
# output 4.0

# input Determine its reported Herbicidal rating ECHORC: CCOC(=O)COc1ccccc1CC1S/C(=N/c2cc(-n3c(=O)cc(C(F)(F)F)n(C)c3=O)c(F)cc2Cl)N(CC(=O)OCC)C1=O (stereo not drawn) [Compound 42]
# output 5.0

# input Determine its reported Herbicidal rating ECHORC: CC1SC(=Nc2cc(-n3c(=O)cc(C(F)(F)F)n(C)c3=O)c(F)cc2Cl)N(C)C1=O (stereo not drawn) [Compound 9]
# output 4.0

# input Determine its reported Herbicidal rating ECHORC: Cn1c(C(F)(F)F)cc(=O)n(-c2cc(N=C3SCC(=O)N3CCC(=O)O)c(Cl)cc2F)c1=O [Compound 31]
# output 2.0

# input Determine its reported Herbicidal rating ECHORC: Cn1c(C(F)(F)F)cc(=O)n(-c2cc(N=C3SCC(=O)N3CCC(=O)O)c(Cl)cc2F)c1=O [Compound 30]
# output 0.0

# input Determine its reported Herbicidal rating ECHORC: Cn1c(C(F)(F)F)cc(=O)n(-c2cc(N=C3SCC(=O)N3CC(=O)NS(C)(=O)=O)c(Cl)cc2F)c1=O [Compound 38]
# output 4.0

# input Determine its reported Herbicidal rating ECHORC: CCOC(=O)CN1C(=O)C(CC)SC1=Nc1cc(-n2c(=O)cc(C(F)(F)F)n(C)c2=O)c(F)cc1Cl (stereo not drawn) [Compound 13]
# output 8.0
